Reported STK11 functional score values are given for each entry in this list.
B1: library; numbered along this chain (parent)
chain: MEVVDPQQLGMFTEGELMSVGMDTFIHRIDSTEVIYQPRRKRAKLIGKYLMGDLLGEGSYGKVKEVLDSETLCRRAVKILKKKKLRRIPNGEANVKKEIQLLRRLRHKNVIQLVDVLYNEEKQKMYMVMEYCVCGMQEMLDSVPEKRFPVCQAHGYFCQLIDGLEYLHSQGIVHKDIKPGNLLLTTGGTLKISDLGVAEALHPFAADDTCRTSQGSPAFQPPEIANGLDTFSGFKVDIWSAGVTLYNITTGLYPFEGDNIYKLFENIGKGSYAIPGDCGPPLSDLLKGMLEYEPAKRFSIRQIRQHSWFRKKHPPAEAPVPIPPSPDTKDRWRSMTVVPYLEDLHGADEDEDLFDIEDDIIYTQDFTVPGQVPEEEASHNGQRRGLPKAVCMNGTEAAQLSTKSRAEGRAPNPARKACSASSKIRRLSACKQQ

variants of: B1; assay: STK11 functional score (HeLa growth suppression), rescaled enrichment; synonymous median = 1, nonsense median = 0 (normalised score); details: with HeLa; variant type: missense
READOUT: STK11 functional score

• E396H = 1.55
• F255P = 0.517
• Q159N = 0.806
• R104I = 1.23
• Y49I = 1.24
• K96R = 1.18
• P280T = 1.53
• E130I = 0.376
• S271P = 0.317
• Y118K = 0.568
• F366W = 1.58
• H306W = -0.368
• M18I = 0.652
• P411G = 1.14
• D327I = 1.6
• H107P = 0.25
• L164S = 0.135
• G251S = 1.01
• A410S = 1.4
• M392P = 1.63
• A406L = 1.57
• C391I = 1.07
• R333S = 1.55
• K82V = 0.966
• A406I = 1.6
• H174P = 0.0698
• V390H = 0.912
• A316W = 0.538
• P339G = 0.73
• L183M = -0.0817
• L164T = 0.864
• R301F = 1.55
• G288R = 0.927
• L102S = 0.447
• G215A = 1.15
• M125V = 0.78
• A417D = 1.41
• N109W = 0.336
• M139P = 0.179
• G385I = 1.45
• P411I = 1.55
• P217H = 0.332
• Q100F = 0.976
• T209V = 1.42
• K311G = 1.35
• G279M = 0.984
• R39M = 1.58
• S401A = 1.54
• T185W = 0.387
• E223D = 0.948
• L183S = 0.646
• V3A = 1.46
• R425H = 1.56
• K269R = 1.22
• P373R = 0.782
• K62Y = 1.31
• D284T = 0.863
• R87I = 1.45
• S240A = 0.891
• Y246R = 0.128
• E256G = 1.17
• N226K = 0.86
• I35C = 1.39
• V143W = 0.622
• K146I = 0.185
• N181T = -0.449
• V320C = 0.788
• S299C = 1.3
• P281Y = 1.38
• W239I = -0.18
• V66C = 1.46
• R297K = -0.29
• G268D = 1.53
• K83L = 0.484
• I224H = 1.46
• I322V = 1.08
• E317L = 1.34
• D115E = 1.27
• E121G = 1.18
• V114A = 0.829
• P280H = 1.17
• F264I = 0.658
• F298W = 0.876
• I46L = 1.25
• I35P = 1.69
• P314D = 1.5
• E351T = 1.52
• E92T = 1.62
• Q112S = 1.1
